# System: 647-V (Bladder Carcinoma)
# method notes: combination Emax (second highest fraction inhibited in the dose matrix, 72 h); higher = more inhibition; extreme values may be limits of the assay
// label = TRUE if combination Emax is not less than 0.6, otherwise FALSE

Problem: Exam item: decide whether the reported combination Emax for CC(=O)c1c(C)c2cnc(Nc3ccc(N4CCNCC4)cn3)nc2n(C2CCCC2)c1=O [Palbociclib] + CN(CC[C@H](CSC1=CC=CC=C1)NC2=C(C=C(C=C2)S(=O)(=O)NC(=O)C3=CC=C(C=C3)N4CCC(CC4)[C@H](C5=CC=CC=C5C6=CC=C(C=C6)Cl)O)S(=O)(=O)C(F)(F)F)CCO [AZD4320] (first compound max 10 µM, 7x7, partner max 1 µM) is at least 0.6.
Result: FALSE

Problem: Hi team, for CC1(C)CCC(CN2CCN(c3ccc(C(=O)NS(=O)(=O)c4ccc(NCC5CCOCC5)c([N+](=O)[O-])c4)c(Oc4cnc5[nH]ccc5c4)c3)CC2)=C(c2ccc(Cl)cc2)C1 [Venetoclax] + COc1cc(Nc2ncc3c(n2)-c2ccc(Cl)cc2C(c2c(F)cccc2OC)=NC3)ccc1C(=O)O [Alisertib] (first compound max 1 µM, 7x7, partner max 10 µM) , is the recorded combination Emax at or above 0.6?
Result: FALSE

Problem: # check: combination Emax of NC1(C(=O)N[C@@H](CCO)c2ccc(Cl)cc2)CCN(c2ncnc3[nH]ccc23)CC1 [Capivasertib] + CC(C)n1c(=O)n(C)c2cnc3cc(F)c(-c4ccc(OCCCN5CCCCC5)nc4)cc3c21 [AZD1390] (first compound max 10 µM, 7x7, partner max 0.3 µM) is greater than or equal to 0.6
Result: FALSE

Problem: Determine whether this compound has combination Emax no lower than 0.6: CC(=O)c1c(C)c2cnc(Nc3ccc(N4CCNCC4)cn3)nc2n(C2CCCC2)c1=O [Palbociclib] + CC1(C)CCC(CN2CCN(c3ccc(C(=O)NS(=O)(=O)c4ccc(NCC5CCOCC5)c([N+](=O)[O-])c4)c(Oc4cnc5[nH]ccc5c4)c3)CC2)=C(c2ccc(Cl)cc2)C1 [Venetoclax] (first compound max 10 µM, 7x7, partner max 1 µM)
Result: FALSE

Problem: Item Cc1c2c(nn1C)CSCc1cc(n(C)n1)CSc1cc(c3ccccc3c1)OCCCc1c(C(=O)O)n(C)c3c-2c(Cl)ccc13 [AZD5991] + C1CN(CCC1(C(=O)N[C@@H](CCO)C2=CC=C(C=C2)Cl)N)C3=NC=NC4=C3C=CN4 [Capivasertib] (first compound max 1 µM, 7x7, partner max 3 µM) with combination Emax of 0.6 or above?
Result: TRUE

Problem: Can Cc1c2c(nn1C)CSCc1cc(n(C)n1)CSc1cc(c3ccccc3c1)OCCCc1c(C(=O)O)n(C)c3c-2c(Cl)ccc13 [AZD5991] + CN(C)CCCOc1ccc(-c2ccc3ncc4c(c3c2)n(C2CCOCC2)c(=O)n4C)cn1 [AZD0156] (first compound max 1 µM, 7x7, partner max 1 µM) be said to have combination Emax at or above 0.6?
Result: TRUE

The measurements presented in this section are drawn from the supplement of paper PMC11061612.
